Origin of values: patent US20260151494A1

Target: T1, human CD71 extracellular domain (human, UniProt P02786 89-760)
T1 construct: also called hCD71; human CD71-ECD
T1 sequence (P02786 89-760): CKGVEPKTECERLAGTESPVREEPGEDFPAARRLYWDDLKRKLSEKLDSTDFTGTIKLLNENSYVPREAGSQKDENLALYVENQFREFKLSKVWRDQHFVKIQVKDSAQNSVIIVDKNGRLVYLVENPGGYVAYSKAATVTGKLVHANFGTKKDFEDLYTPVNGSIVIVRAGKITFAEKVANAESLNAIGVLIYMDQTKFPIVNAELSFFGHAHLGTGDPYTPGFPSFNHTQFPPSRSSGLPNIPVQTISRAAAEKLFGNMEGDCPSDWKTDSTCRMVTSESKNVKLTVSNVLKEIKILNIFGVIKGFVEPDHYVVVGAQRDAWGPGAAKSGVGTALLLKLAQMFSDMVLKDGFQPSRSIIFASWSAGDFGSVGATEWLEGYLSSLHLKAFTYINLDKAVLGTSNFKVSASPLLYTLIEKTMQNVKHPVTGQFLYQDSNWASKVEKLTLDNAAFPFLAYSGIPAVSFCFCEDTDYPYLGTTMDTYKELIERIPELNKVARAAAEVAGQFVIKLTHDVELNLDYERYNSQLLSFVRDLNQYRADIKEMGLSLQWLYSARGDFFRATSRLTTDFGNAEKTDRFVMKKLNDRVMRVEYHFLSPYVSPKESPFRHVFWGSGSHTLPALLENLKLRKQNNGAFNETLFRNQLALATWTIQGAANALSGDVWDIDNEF
Assay: primary ELISA, ratio of signal to HSA control
quantity.name: hCD71:HSA

binder	measured.number
CD71-binding FN3 domain of SEQ ID NO: 221 (designed binder) MSLPAPKNLVVSRVTEDSARLSWTAPDAAFDSFFIGYLEPRPPGEAIHLYVPGSERSYDLTGLKPGTEYNITIQGVKGGFPSIPLIASFTT	176

(I) CD71-binding FN3 domain of SEQ ID NO: 227 (designed binder) MSLPAPKNLVVSRVTEDSARLSWTAPDAAFDSFEIAYAELSTGEAIVLTVPGSERSYDLTGLKPGTEYYVHIGGVKGGSWSIPLSAIFTT
(II) CD71-binding FN3 domain of SEQ ID NO: 232 (designed binder) MSLPAPKNLVVSRVTEDSARLSWTAPDAAFDSFEISYWEHTFNGEAIILFVPGSERSYDLTGLKPGTEYVVFIGGVKGGVWSVPLSAIFTT
(III) CD71-binding FN3 domain of SEQ ID NO: 220 (designed binder) MSLPAPKNLVVSRVTEDSARLSWTAPDAAFDSFEIAYWEQSYTGEAIVLTVPGSERSYDLTGLKPGTEYWVQIGGVKGGNWSAPLSAIFTT
(IV) CD71-binding FN3 domain of SEQ ID NO: 219 (designed binder, the tag is not included in the chain) MSLPAPKNLVVSRVTEDSARLSWTAPDAAFDSFAIMYGERGNPGEAIVLTVPGSERSYDLTGLKPGTEYAVWIYGVKGGNYSYPLSAIFTT
(V) CD71-binding FN3 domain of SEQ ID NO: 228 (designed binder) MSLPAPKNLVVSRVTEDSARLSWTAPDAAFDSFEIGYWENAYKGEAIVLTVPGSERSYDLTGLKPGTEYVVFIGGVKGGVWSKPLSVIFTT
Exam item: Falling order of hCD71:HSA, please. # list labels per requested ordering
Marked response: III, II, V, IV, I
(III: 388, II: 195, V: 133, IV: 66, I: 30)
